Test: Irinotecan IV dose tolerability
Assay type: in vivo, mouse
Settings: female, mouse, in vivo; SCID mice, via IV
measured_attribute: MTD (mg/kg)
One number for each entry, in mg/kg.

Requested field: MTD. Item: CCc1c2c(nc3ccc(OC(=O)N4CCC(N5CCCCC5)CC4)cc13)-c1cc3c(c(=O)n1C2)COC(=O)[C@]3(O)CC
50
